Test system: Canis familiaris
Test: Positive inotropic activity after intravenous administration of 10 ug/kg (dose) to anesthetized dog
Format: functional, Canis lupus familiaris
Entry flag: true if Increase in dP/dTmax reaches 30%; false if it does not.

Data request: # check: Increase in dP/dTmax of CC(=O)c1cn(-c2cc(C)c3nc(O)ccc3c2)c(C)n1 is greater than or equal to 30%
Data returned: true

Data request: # check: Increase in dP/dTmax of Cc1cc(-n2cc(-c3ccccc3)nc2C)cc2ccc(O)nc12 is greater than or equal to 30%
Data returned: false

Data request: # check: Increase in dP/dTmax of Cc1cc(-n2cc(I)nc2C)cc2ccc(O)nc12 is greater than or equal to 30%
Data returned: false

Data request: # check: Increase in dP/dTmax of Cc1cc(-n2cc(Cl)nc2C)cc2ccc(O)nc12 is greater than or equal to 30%
Data returned: true

Data request: # check: Increase in dP/dTmax of Cc1cn(-c2cc(C)c3nc(O)ccc3c2)c(I)n1 is greater than or equal to 30%
Data returned: true

Data request: # check: Increase in dP/dTmax of CSc1cn(-c2cc(C)c3nc(O)ccc3c2)c(C)n1 is greater than or equal to 30%
Data returned: true

Data request: # check: Increase in dP/dTmax of Cc1cn(-c2cc(C)c3nc(O)ccc3c2)c(C#N)n1 is greater than or equal to 30%
Data returned: true

Others:
Data request: # check: Increase in dP/dTmax of Cc1nc(C)n(-c2cc(C)c3nc(O)ccc3c2)c1Cl is greater than or equal to 30%
Data returned: true
